# pKi listing for each entry below
target or system: 5-hydroxytryptamine receptor 7 (Homo sapiens)
Sequence (P34969 whole entry): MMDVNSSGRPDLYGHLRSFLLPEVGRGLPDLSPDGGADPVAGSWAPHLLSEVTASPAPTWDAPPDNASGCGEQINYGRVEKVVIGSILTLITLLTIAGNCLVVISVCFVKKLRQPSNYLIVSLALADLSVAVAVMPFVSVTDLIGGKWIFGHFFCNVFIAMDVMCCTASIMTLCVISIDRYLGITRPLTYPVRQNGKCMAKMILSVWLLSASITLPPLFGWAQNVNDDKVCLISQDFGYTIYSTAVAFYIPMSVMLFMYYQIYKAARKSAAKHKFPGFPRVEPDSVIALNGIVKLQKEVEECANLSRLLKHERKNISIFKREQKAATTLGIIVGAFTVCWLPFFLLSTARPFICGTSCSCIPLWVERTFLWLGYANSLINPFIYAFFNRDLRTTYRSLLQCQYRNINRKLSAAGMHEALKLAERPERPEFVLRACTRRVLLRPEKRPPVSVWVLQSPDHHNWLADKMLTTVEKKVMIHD
pKi: −log10 of the molar value.
reported property: pKi

chemical smiles	number
NC(=O)[C@@H]1CCCN1C(=O)CCCCCN1CCN(c2noc3ccccc23)CC1	7.30
NC(=O)[C@@H]1Cc2ccccc2CN1C(=O)CCCCCCN1CCN(c2noc3ccccc23)CC1	7.55
NC(=O)[C@@H]1Cc2ccccc2CN1C(=O)CCCCCN1CCN(c2cccc(Cl)c2Cl)CC1	7.02
COc1ccccc1N1CCN(CCCCC(=O)N2Cc3ccccc3C[C@H]2C(N)=O)CC1	6.26
NC(=O)[C@@H]1Cc2ccccc2CN1C(=O)CCCCN1CCN(c2ccc(F)cc2)CC1	6.53
COc1ccccc1N1CCN(Cc2ccc(C(=O)N3Cc4ccccc4C[C@H]3C(N)=O)cc2)CC1	6.24
NC(=O)[C@@H]1Cc2ccccc2CN1C(=O)CCCCCN1CCN(c2cccc(Cl)c2)CC1	6.14
